test: protein stability index of a GFP-peptide fusion (GPS, HEK-293T) (PSI 1-6); higher = more stable; settings: treatment: MLN4924 1 uM, 8 h; c terminus: a fixed tail appended;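 further: 24-mer peptide tiles fused after GFP, lentivirally expressed, FACS-sorted into six equal bins by GFP/DsRed ratio, decoded by Illumina sequencing, PSI is the read-weighted mean bin number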
Measured protein stability index, listed per entry for reference.
Assay Metric: protein stability index

>  <Residues>
GMDFHRFYFENALSKSNKPIHTII [CAMK2D]

>  <Value>
2.06

$$$$
>  <Residues>
VLSSEQEFQMFPKSRLSSVSVTYC [ETS2]

>  <Value>
2.23

$$$$
>  <Residues>
EVASNTEMIQTSKTEITDLRRTMQ [KRT15]

>  <Value>
4.27

$$$$
>  <Residues>
LLSLVTFTFLSAKCLQGNADGDGG [PCDHGC5]

>  <Value>
2.93

$$$$
>  <Residues>
PSGPPPPPPSVLGVGPVAPPPPPP [WASL]

>  <Value>
4.89

$$$$
>  <Residues>
CVNYEGQSAYDVADMLKQYFRDLP [DLC1]

>  <Value>
2.65

$$$$
>  <Residues>
RHFFTSWASCLQYDFDTQYAFVGD [WDFY1]

>  <Value>
2.39

$$$$

---

experiment: protein stability index of a GFP-peptide fusion (GPS, HEK-293T) (PSI 1-6); higher = more stable; details: treatment: MLN4924 1 uM, 8 h; c terminus: native
Measured protein stability index, listed per entry for reference.

>  <Residues>
VAGGVAVAAIALILGVAFLVRKK [CEND1]

>  <protein stability index>
4.16

$$$$
>  <Residues>
SELQKELKKVKTAHSNDGDCKTQ [DPCD]

>  <protein stability index>
5.28

$$$$
>  <Residues>
KLLDELPIAKVMKDYLKHKFDDI [ASB7]

>  <protein stability index>
2.66

$$$$

---

assay: protein stability index of a GFP-peptide fusion (GPS, HEK-293T) (PSI 1-6); higher = more stable; details: treatment: DMSO; c terminus: native
Measured protein stability index, listed per entry for reference.

>  <Residues>
RCLHASQWPVCAACPVRKFWSVG [BRF1]

>  <protein stability index>
2.4

$$$$
>  <Residues>
WQPAVPLMHMLHLSGALDFPRQS [SPATS1]

>  <protein stability index>
2.9

$$$$
>  <Residues>
NWFMSFGPEIKLNTSQQGRNQAV [FAM104B]

>  <protein stability index>
2.12

$$$$
>  <Residues>
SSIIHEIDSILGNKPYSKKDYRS [KCNAB2]

>  <protein stability index>
3.02

$$$$
>  <Residues>
FFIESCGAQVPVEGSRRETSITV

>  <protein stability index>
2.56

$$$$
>  <Residues>
KLLDELPIAKVMKDYLKHKFDDI [ASB7]

>  <protein stability index>
2.37

$$$$
>  <Residues>
TQPGIRRARDKALSGGKRKETLV [NET1]

>  <protein stability index>
4.29

$$$$
>  <Residues>
VAGGVAVAAIALILGVAFLVRKK [CEND1]

>  <protein stability index>
4.02

$$$$
>  <Residues>
PLLRWVLTLSFLVATVAVGLYAM [HMOX1]

>  <protein stability index>
2.86

$$$$
>  <Residues>
LQFDPAPRRGEPHVTRRTPDYFL [PPP2CA]

>  <protein stability index>
4.16

$$$$
>  <Residues>
DDEDEEEEDADCYDDDDSGNEES [UBE2R2]

>  <protein stability index>
5.57

$$$$
>  <Residues>
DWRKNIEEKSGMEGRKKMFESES [TNNI2]

>  <protein stability index>
3.04

$$$$
>  <Residues>
SELQKELKKVKTAHSNDGDCKTQ [DPCD]

>  <protein stability index>
4.94

$$$$
>  <Residues>
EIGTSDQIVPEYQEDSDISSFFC [TRIB1]

>  <protein stability index>
3.38

$$$$
>  <Residues>
TMLSHYRPFYVNKGNGIGSNEAP [TRIM29]

>  <protein stability index>
3.1

$$$$
>  <Residues>
HDGHLYLGSFRSPFLCRLSLQAV [APMAP]

>  <protein stability index>
2.82

$$$$
